test: chemical genetic growth profiling, strain panel (AID 1159580);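 further: tested at 20 µM; growth read once vehicle control cultures reached saturation at 30 °C; 1 = growth at the plate median or of vehicle wells; lower values mean less growth of the strain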; conditions: S. cerevisiae deletion strains, growth OD, locus YMR205C, strain PFK2 (second series), hits give low values
About 2,000 (36%) of roughly 5,500 compounds were called active. Inconclusive results (about 18%) are left out. Some of the results follow.
This listing pairs compounds with measured normalized growth.

Would you kindly share the measured normalized growth for `Clc1ccc(Oc2ccnc3cc(Cl)ccc23)cc1` ?
0.742 (active)

Name the reported normalized growth value associated with the compound `COc1ccc(Nc2nc(NC(=O)Nc3ccc(Cl)cc3)n[nH]2)cc1`
0.782 (inactive)

Which normalized growth value belongs to `Clc1cc(Cl)cc(C=NCc2ccccc2)c1` ?
0.652 (active)

Given the compound Cc1ccc(NC(=S)C(C#N)C(=O)N2CCOCC2)c(C)c1 (stereo not given) , what is its reported normalized growth?
1.03 (inactive)

Consider the compound `O=[N+]([O-])c1ccsc1Oc1cccc(C(F)(F)F)c1` and give its measured normalized growth.
0.911 (inactive)

Reported normalized growth, compound `CC1=CC(=O)N(c2ccc(OC(F)(F)F)cc2)C1=O` : ____
0.563 (active)

Given the compound `N#CC(C#N)=Cc1c(-c2ccccc2Cl)[nH]c2ccccc12` , what is its reported normalized growth?
0.919 (inactive)

I'd like to know its normalized growth. The compound in question is `Cc1ccc(S(=O)(=O)Nc2nc(-c3ccc(C)c(Cl)c3)c(C)s2)cc1`
0.987 (inactive)

Give the measured normalized growth of `Clc1ccc(-c2cnc(Nc3cc(Cl)cc(Cl)c3)s2)cc1` .
0.16 (active)

normalized growth lookup needed for `O=S(=O)(Nc1cc(Cl)c(Cl)cc1Cl)c1cc(C(F)(F)F)cc(C(F)(F)F)c1` , thanks.
0.954 (inactive)

I would be grateful if you could share the reported normalized growth for `CN(C)c1ccc(/C=C/c2ccc3ccccc3[n+]2C)cc1` .
0.887 (inactive)
